Target: Epac2^fl (Mus musculus, UniProt Q9EQZ6)
Sequence (Q9EQZ6 1-993 isoform Q9EQZ6-3): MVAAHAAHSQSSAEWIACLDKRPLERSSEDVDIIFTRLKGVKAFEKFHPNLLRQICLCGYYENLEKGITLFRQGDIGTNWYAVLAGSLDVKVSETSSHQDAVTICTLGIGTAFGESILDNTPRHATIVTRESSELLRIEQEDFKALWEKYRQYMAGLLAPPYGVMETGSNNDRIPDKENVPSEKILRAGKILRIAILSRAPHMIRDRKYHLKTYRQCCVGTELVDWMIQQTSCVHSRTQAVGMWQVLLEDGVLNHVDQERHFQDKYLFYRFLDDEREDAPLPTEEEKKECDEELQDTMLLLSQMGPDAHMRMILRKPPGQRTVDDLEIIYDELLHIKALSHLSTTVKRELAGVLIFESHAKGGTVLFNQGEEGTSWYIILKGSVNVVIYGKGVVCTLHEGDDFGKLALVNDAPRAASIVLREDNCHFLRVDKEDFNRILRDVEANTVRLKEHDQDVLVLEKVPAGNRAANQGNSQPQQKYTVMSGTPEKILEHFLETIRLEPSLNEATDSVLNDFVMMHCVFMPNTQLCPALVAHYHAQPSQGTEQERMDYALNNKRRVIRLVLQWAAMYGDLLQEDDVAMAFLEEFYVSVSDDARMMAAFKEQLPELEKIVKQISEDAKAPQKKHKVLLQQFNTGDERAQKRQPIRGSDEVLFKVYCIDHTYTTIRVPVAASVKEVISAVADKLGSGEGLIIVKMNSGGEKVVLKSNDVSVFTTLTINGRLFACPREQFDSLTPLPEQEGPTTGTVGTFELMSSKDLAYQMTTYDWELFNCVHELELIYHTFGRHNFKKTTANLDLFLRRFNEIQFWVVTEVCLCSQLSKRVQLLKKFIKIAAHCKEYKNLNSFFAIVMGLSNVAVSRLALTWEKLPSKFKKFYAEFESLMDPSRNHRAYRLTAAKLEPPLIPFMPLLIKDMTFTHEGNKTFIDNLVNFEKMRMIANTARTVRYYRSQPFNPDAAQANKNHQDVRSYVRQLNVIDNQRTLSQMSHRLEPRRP
Assay: Epac activation assay, full length Epac2
Type: biochemical
Parameters: made in house
Conditions: 0.5 μM compound
OUTCOME MEASURE: kobs (s⁻¹)
Answers are plain numbers, in s⁻¹.

>>> observed_result("Nc1ncnc2c1nc(SCc1ccccc1)n2[C@@H]1O[C@@H]2CO[P@](O)(=S)O[C@H]2[C@H]1O")
0.000295

State recorded kobs for all listed compounds.
1. COC1C2OP(=O)(O)OCC2OC1n1c(Sc2ccc(Cl)cc2)nc2c(N)ncnc21 [D-007, 8-pCPT-2′-O-Me-cAMP, reference compound]
2. Nc1ncnc2c1ncn2[C@@H]1O[C@@H]2COP(=O)(O)O[C@H]2[C@H]1O [cAMP, reference compound]
3. Cc1ccc(CSc2nc3c(N)ncnc3n2[C@@H]2O[C@@H]3CO[P@](O)(=S)O[C@H]3[C@H]2O)cc1

Key:
1. 1.62e-05
2. 2.1e-05
3. 3.3e-05

###

Molecular target: PKA-IIα (Homo sapiens, UniProt P13861)
Construct: made in house
Sequence (P13861 whole entry): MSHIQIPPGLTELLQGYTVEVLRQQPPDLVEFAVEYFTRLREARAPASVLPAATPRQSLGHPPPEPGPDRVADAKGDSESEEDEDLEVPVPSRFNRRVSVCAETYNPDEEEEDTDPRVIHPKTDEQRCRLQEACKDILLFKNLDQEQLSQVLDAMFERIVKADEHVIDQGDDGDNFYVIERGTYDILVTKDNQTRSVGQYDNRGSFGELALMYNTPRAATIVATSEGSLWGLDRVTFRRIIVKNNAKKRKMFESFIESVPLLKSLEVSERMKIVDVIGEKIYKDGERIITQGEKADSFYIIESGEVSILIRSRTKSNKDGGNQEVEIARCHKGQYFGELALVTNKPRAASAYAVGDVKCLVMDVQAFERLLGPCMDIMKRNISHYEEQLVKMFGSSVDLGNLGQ
Experiment: PKA activity assay, PKA-IIα
Type: biochemical
Conditions: PKAIIα; concentration 2.50E+02 μM
OUTCOME MEASURE: A (PKA activity) (U/mg)
Give bare numbers, in U/mg.

Take a look at these entries with their results.
>>> observed_result("Nc1ncnc2c1ncn2[C@@H]1O[C@@H]2COP(=O)(O)O[C@H]2[C@H]1O [cAMP, reference compound]")
"2.55E+01"
>>> observed_result("Nc1ncnc2c1nc(SCc1ccccc1)n2[C@@H]1O[C@@H]2CO[P@](O)(=S)O[C@H]2[C@H]1O [S-220, Sp-8-BnT-cAMPS]")
"2.28E+01"
>>> observed_result("Cc1ccc(CSc2nc3c(N)ncnc3n2[C@@H]2O[C@@H]3CO[P@](O)(=S)O[C@H]3[C@H]2O)cc1 [S-230, Sp-8-pMeBnT-cAMPS]")
"1.76E+01"

# input for lookup
So for COC1C2OP(=O)(O)OCC2OC1n1c(Sc2ccc(Cl)cc2)nc2c(N)ncnc21 [D-007, 8-pCPT-2′-O-Me-cAMP, reference compound] , the logged A (PKA activity) turned out to be 1.57E+01

###

Provide the recorded Rel. kmax for the entries that follow.
Molecular target: Epac2^Δ280 (Mus musculus)
Construct: made in house
Assay: Epac activation assay (Rap1B•mGDP fluorescence nucleotide exchange), Epac2^Δ280
Format: biochemical
Conditions: Epac2^Δ280; maximal activity relative to cAMP
Experimental: Murine Epac2 was used as all previous structural studies were performed with it. The activity of Epac was determined by a fluorescence assay. […] The fluorescence intensity of Rap1B•mGDP is approximately twice that of free mGDP, and thus, nucleotide exchange can be observed as a decay in fluorescence upon the addition of excess unlabeled GDP.
Numbers only.

>>> observed_result("C[Se]c1nc2c(N)ncnc2n1[C@@H]1O[C@@H]2COP(=O)(O)O[C@H]2[C@H]1O")
1.5
>>> observed_result("CSc1nc2c(N)ncnc2n1[C@@H]1O[C@@H]2CO[P@](O)(=S)O[C@H]2[C@H]1F")
2.8
>>> observed_result("COC1C2OP(=O)(O)OCC2OC1n1c(Sc2ccc(Cl)cc2)nc2c(N)ncnc21 [D-007, 8-pCPT-2′-O-Me-cAMP, reference compound]")
0.8

State recorded Rel. kmax for all listed compounds.
1. CSc1nc2c(N)ncnc2n1[C@@H]1O[C@@H]2CO[P@](O)(=S)O[C@H]2[C@H]1O
2. Nc1ncnc2c1ncn2[C@H]1C[C@@H]2OP(=O)(O)OC[C@H]2O1
3. CNc1nc2c(N)ncnc2n1[C@@H]1O[C@@H]2COP(=O)(O)O[C@H]2[C@H]1Cl
4. CO[C@H]1C2OP(O)(=S)OC[C@H]2O[C@H]1n1c(Br)nc2c(N)ncnc21 (some centres unmarked)
5. Nc1ncnc2c1nc(SCc1ccccc1)n2[C@@H]1O[C@@H]2CO[P@](O)(=S)O[C@H]2[C@H]1O
6. CSc1nc2c(N)ncnc2n1[C@@H]1O[C@@H]2COP(=O)(O)O[C@H]2[C@H]1SC
7. [N-]=[N+]=Nc1nc2c(N)ncnc2n1[C@@H]1O[C@@H]2COP(=O)(O)O[C@H]2[C@H]1O

Key:
7.4
1.4
2.2
2.0
7.7
2.0
0.7

###

Biological target: Epac1 (Homo sapiens, UniProt O95398)
Construct: made in house
Sequence (O95398 192-923): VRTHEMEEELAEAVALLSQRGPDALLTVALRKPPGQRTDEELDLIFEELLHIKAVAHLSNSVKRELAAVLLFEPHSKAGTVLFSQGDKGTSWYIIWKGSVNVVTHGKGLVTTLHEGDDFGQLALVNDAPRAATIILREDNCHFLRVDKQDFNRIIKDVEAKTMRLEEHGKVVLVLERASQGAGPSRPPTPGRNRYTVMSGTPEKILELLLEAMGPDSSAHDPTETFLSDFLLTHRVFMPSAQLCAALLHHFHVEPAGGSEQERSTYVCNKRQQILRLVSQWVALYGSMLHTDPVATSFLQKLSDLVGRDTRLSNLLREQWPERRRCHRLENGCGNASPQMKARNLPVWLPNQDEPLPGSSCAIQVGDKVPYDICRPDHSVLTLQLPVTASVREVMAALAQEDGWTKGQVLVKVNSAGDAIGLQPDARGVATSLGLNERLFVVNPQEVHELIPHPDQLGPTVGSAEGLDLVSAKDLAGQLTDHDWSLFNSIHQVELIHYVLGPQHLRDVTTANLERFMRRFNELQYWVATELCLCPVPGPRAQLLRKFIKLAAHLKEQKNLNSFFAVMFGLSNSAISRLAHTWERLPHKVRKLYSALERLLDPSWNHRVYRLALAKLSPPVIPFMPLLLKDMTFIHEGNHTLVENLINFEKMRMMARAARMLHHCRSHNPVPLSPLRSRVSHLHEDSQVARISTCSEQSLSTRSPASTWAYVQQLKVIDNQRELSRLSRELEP
Test: Epac activation assay, Epac1
Type: biochemical
Conditions: 4 μM compound
OUTCOME MEASURE: kobs (s⁻¹)
One number for each entry, in s⁻¹.

State recorded kobs for all listed molecules.
1. Cc1ccc(CSc2nc3c(N)ncnc3n2[C@@H]2O[C@@H]3CO[P@](O)(=S)O[C@H]3[C@H]2O)cc1 [S-230, Sp-8-pMeBnT-cAMPS]
2. Nc1ncnc2c1nc(SCc1ccccc1)n2[C@@H]1O[C@@H]2CO[P@](O)(=S)O[C@H]2[C@H]1O [S-220, Sp-8-BnT-cAMPS]
3. Nc1ncnc2c1ncn2[C@@H]1O[C@@H]2COP(=O)(O)O[C@H]2[C@H]1O [cAMP, reference compound]
4. COC1C2OP(=O)(O)OCC2OC1n1c(Sc2ccc(Cl)cc2)nc2c(N)ncnc21 [D-007, 8-pCPT-2′-O-Me-cAMP, reference compound]

Key:
3e-05
9.2e-05
0.000116
0.00283

###

Target: PKA-IIβ (Homo sapiens, UniProt P31323)
Sequence (P31323 whole entry): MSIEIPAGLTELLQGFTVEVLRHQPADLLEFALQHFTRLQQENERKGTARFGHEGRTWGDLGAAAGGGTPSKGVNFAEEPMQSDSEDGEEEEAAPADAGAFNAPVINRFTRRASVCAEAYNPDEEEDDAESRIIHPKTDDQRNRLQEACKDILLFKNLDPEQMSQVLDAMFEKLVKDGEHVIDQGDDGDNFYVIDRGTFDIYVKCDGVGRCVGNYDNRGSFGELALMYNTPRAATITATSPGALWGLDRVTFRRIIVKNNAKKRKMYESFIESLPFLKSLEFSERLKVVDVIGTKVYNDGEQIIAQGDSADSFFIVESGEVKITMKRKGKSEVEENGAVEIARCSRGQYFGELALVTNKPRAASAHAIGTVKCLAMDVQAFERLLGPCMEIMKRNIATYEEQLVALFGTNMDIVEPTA
Test: PKA activity assay, PKA-IIβ
Details: PKA-IIβ; read-out: Kact
Provide the recorded pEC50 for the entries that follow.
Numbers only, as −log10 of the molar value.

>>> observed_result("COC1C2OP(=O)(O)OCC2OC1n1c(Sc2ccc(Cl)cc2)nc2c(N)ncnc21 [D-007, 8-pCPT-2′-O-Me-cAMP, reference compound]")
4.30

# input for lookup
So for Nc1ncnc2c1nc(SCc1ccccc1)n2[C@@H]1O[C@@H]2CO[P@](O)(=S)O[C@H]2[C@H]1O [S-220, Sp-8-BnT-cAMPS] , the logged pEC50 turned out to be 6.68

###

Molecular target: Epac2^fl (Mus musculus, UniProt Q9EQZ6)
Sequence (Q9EQZ6 1-993 isoform Q9EQZ6-3): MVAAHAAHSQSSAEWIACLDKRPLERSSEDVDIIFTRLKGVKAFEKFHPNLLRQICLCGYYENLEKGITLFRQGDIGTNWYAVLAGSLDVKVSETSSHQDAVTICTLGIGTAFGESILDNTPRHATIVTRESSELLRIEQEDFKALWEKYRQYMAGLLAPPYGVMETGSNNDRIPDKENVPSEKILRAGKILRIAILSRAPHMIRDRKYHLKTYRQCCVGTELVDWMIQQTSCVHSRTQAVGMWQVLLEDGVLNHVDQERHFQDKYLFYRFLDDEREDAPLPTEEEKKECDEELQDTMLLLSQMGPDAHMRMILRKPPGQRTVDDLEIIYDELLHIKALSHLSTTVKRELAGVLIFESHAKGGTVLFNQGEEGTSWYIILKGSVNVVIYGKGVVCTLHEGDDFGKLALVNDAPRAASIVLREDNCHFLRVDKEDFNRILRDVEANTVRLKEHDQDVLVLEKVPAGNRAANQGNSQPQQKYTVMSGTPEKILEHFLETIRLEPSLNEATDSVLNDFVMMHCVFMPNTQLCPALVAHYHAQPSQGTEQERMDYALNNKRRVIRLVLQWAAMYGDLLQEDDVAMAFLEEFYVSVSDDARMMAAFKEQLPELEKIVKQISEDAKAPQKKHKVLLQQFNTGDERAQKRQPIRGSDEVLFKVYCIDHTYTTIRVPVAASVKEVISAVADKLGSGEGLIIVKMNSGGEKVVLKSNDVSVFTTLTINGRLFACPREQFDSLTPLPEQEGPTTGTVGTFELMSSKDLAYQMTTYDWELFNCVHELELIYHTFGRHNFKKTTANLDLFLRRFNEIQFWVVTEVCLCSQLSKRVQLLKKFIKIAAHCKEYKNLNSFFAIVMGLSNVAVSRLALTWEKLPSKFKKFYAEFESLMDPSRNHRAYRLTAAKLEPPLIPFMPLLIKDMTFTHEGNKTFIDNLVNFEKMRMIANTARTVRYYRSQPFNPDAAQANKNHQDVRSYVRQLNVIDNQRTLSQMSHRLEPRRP
Assay: Epac activation assay, full length Epac2
Format: biochemical
Design: made in house
Conditions: 6 μM compound
OUTCOME MEASURE: kobs (s⁻¹)
Give bare numbers, in s⁻¹.

Take a look at these entries with their results.
>>> observed_result("Cc1ccc(CSc2nc3c(N)ncnc3n2[C@@H]2O[C@@H]3CO[P@](O)(=S)O[C@H]3[C@H]2O)cc1")
0.000194
>>> observed_result("COC1C2OP(=O)(O)OCC2OC1n1c(Sc2ccc(Cl)cc2)nc2c(N)ncnc21 [D-007, 8-pCPT-2′-O-Me-cAMP, reference compound]")
"3.39e-05"

State recorded kobs for all listed compounds.
1. Nc1ncnc2c1nc(SCc1ccccc1)n2[C@@H]1O[C@@H]2CO[P@](O)(=S)O[C@H]2[C@H]1O
2. Nc1ncnc2c1ncn2[C@@H]1O[C@@H]2COP(=O)(O)O[C@H]2[C@H]1O [cAMP, reference compound]

Key:
0.00114
5.05e-05
